Data export: Kd values recorded with Ephrin type-A receptor 7 (Homo sapiens).
Sequence (Q15375 whole entry): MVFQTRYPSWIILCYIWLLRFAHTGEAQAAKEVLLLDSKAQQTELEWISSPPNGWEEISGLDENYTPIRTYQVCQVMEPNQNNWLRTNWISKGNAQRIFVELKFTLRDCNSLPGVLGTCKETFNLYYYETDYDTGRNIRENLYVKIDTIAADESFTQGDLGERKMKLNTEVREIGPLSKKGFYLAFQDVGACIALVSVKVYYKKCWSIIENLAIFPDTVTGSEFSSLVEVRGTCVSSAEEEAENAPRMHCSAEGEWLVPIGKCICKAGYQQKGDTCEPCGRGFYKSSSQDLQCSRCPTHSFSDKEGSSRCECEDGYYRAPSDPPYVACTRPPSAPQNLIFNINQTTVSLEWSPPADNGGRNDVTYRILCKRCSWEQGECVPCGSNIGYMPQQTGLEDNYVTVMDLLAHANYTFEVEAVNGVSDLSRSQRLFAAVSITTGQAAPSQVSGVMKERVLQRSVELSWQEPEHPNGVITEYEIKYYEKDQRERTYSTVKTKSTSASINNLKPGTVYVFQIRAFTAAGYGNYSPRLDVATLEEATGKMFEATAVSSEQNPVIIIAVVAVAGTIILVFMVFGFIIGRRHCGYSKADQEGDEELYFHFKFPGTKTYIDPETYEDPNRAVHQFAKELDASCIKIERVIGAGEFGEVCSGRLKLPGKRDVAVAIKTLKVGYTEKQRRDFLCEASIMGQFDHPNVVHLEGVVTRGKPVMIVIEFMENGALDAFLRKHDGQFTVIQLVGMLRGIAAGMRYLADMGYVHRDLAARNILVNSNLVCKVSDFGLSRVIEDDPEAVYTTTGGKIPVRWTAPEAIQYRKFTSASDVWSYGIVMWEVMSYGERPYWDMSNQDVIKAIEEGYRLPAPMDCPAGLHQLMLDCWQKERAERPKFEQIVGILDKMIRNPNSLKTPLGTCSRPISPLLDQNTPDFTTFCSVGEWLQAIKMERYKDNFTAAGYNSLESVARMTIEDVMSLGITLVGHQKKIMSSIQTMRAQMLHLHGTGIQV
reportedMetric: Kd

- molecule: "CCOc1cc2ncc(C#N)c(Nc3ccc(F)c(Cl)c3)c2cc1NC(=O)/C=C/CN(C)C [PELITINIB]"
  targetDesc: "Ephrin type-A receptor 7 (Homo sapiens)"
  reported: "> 10 µM"
- molecule: "COCC(=O)NC/C=C/c1ccc2ncnc(Nc3ccc(Oc4ccc(C)nc4)c(C)c3)c2c1 [CP-724714]"
  targetDesc: "Ephrin type-A receptor 7 (Homo sapiens)"
  reported: "> 10 µM"
- molecule: "Nc1nc(Nc2ccc(S(N)(=O)=O)cc2)nn1C(=O)c1c(F)cccc1F [JNJ-7706621]"
  targetDesc: "Ephrin type-A receptor 7 (Homo sapiens)"
  reported: "3.1 µM"
- molecule: "Oc1ccc(-c2nc(-c3ccncc3)c(-c3ccc(F)cc3)[nH]2)cc1 [SB-202190]"
  targetDesc: "Ephrin type-A receptor 7 (Homo sapiens)"
  reported: "> 10 µM"
- molecule: "NC(=O)c1ccc(-c2nc(-c3ccc4c(c3)OCO4)c(-c3ccccn3)[nH]2)cc1 [SB-431542]"
  targetDesc: "Ephrin type-A receptor 7 (Homo sapiens)"
  reported: "> 10 µM"
